# key: entry, value: TGI
# Tested on: RPMI-8226 leukemia
# assay.details: NCI tumour cell line growth inhibition, 48 h
readout.type: TGI

1. O=C1C=CC2(C=C1)O[C@H](CCc1ccccc1)[C@@H](CCc1ccccc1)O2 :: > 100 µM
2. CC(Oc1ccc(Cl)cc1Cl)C(=O)NN1C(=O)CC(=O)NC1=S (stereo not given) :: > 100 µM
3. Cc1ccc(C)c(NC(=O)C(=O)C(C2C(C)CC(=O)C2CC(=O)O)[N+](=O)[O-])c1 (stereo not given) :: > 100 µM
4. Oc1ccc(Br)cc1C=Nc1ccc(Oc2ccc(N=Cc3cc(Br)ccc3O)cc2)cc1 :: > 19.6 µM
5. O=C(N/N=C/c1coc2ccc(Cl)cc2c1=O)c1cc(O)c(O)c(O)c1 :: > 100 µM

====

Catalogue of TGI values
# Tested on: SK-OV-3 ovarian
# assay.details: NCI tumour cell line growth inhibition, 48 h
readout.type: TGI

1) COc1ccc(/C(=N/O)c2cc(F)c(F)c(OC)c2F)cc1O :: > 100 µM
2) COc1cc(Br)c(C=Nc2cccc3ccc(OS(=O)(=O)c4ccc([N+](=O)[O-])cc4)cc23)cc1OC :: > 100 µM
3) COc1cnc2oc3ccc(O)cc3c2c1-c1ccccc1 :: > 100 µM
4) NNC(=S)N/N=C(\c1nc2ccc(Cl)cc2[nH]c1=O)C(O)c1cccc([N+](=O)[O-])c1 (configuration not stated) :: > 100 µM
5) CCOC(=O)c1ccc(N[C@@H]2c3cc4c(cc3C(c3cc(OC)c(O)c(OC)c3)[C@H]3C(=O)OCC32)OCO4)cc1 (some centres not stated) :: 5.16 µM
6) CC(C)(C)c1ccc(OCCCCCCCN2CCNCC2)cc1 :: 3.92 µM
7) O=C(N/N=C/c1cc(Cl)cc(Cl)c1[O-])c1ccccc1O.O=C(N/N=C/c1cc(Cl)cc(Cl)c1[O-])c1ccccc1O.[Mn+2] :: 3.58 µM
8) CC(C)OC(=O)NNc1c(Cl)cc(Cl)cc1Cl :: > 100 µM
9) CCOC(=O)c1sc2c(c1OC(=O)c1ccco1)c(=O)n(-c1ccccc1)c(=S)n2-c1ccccc1 :: > 100 µM
10) CC(C)CC1C(=O)OC(C)(C)OC1=O :: > 100 µM
11) Nc1nc(N)c2ncn(Cc3ccccc3CO)c2n1 :: > 100 µM
12) CCCCCCCCCCCCNC(=S)OCCCC :: > 100 µM
13) COC(=O)C(C(=O)C(=O)Nc1nc2ccc(OC)cc2s1)c1cnc2ccccc2n1 (configuration not stated) :: > 100 µM
14) CCN(CC)CCNc1ccc2nc(C)n3c4ccc(OC)cc4c(=O)c1c23 :: 19.5 µM
15) O=C1C=C(c2ccccc2)NC1(c1ccccc1)c1cc(-c2ccccc2)[nH]c1-c1ccccc1 (configuration not stated) :: > 100 µM
16) COP(=O)(OC)[C@@](O)(c1ccccc1)[C@@H](O)[C@@H](O)c1ccccc1 :: > 100 µM
17) Cc1cc(NS(=O)(=O)c2ccc(NC(=O)c3ccc4nc5ccccc5c(Nc5ccc(S(N)(=O)=O)cc5)c4c3)cc2)no1 :: > 100 µM
18) CN(C)Cc1nsc(N(C)C)n1 :: > 100 µM
19) O=C(O)C(C1NCCS1)N1C(=O)c2ccccc2C1=O (configuration not stated) :: > 100 µM
20) COc1ccc2c(c1)C1Oc3ccccc3CC1CO2 (configuration not stated) :: > 100 µM
21) CC(=O)CC(=O)Nc1ccc(OS(N)(=O)=O)cc1 :: > 100 µM
22) COc1cc(/C=C/C(=O)c2cccc(-n3cc(-c4ccccc4)[nH]c3=O)c2)ccc1O :: 35.5 µM
